Target: melanocortin-3 receptor (human, UniProt P41968 1-323)
Sequence (P41968 whole entry): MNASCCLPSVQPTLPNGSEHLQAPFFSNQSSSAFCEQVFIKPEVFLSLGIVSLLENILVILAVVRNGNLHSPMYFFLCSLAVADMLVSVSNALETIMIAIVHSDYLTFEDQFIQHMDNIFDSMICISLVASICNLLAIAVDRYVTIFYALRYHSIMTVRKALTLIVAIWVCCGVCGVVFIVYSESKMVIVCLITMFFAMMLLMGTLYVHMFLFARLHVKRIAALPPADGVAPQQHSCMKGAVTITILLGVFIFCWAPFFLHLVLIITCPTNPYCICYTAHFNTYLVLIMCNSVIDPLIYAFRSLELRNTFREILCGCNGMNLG
Assay: cell-based or functional assay
Bridge positions count the residues as written; N and C are the ends. Square brackets hold non-standard residues; d marks the D form. hCys = N[C@@H](CCS)C(=O)O
Ratios of EC50 values: MC3/4 values for the binders below.
Just the number, please, no unit after it.

Indicate the recorded Ratios of EC50 values: MC3/4 value for this binder: Ac-RC[dA]R[dF]RWC-NH2 (disulfide 2-8; SMILES CC(=O)N[C@@H](CCCNC(=N)N)C(=O)N[C@H]1CSSC[C@@H](C(N)=O)NC(=O)[C@H](Cc2c[nH]c3ccccc23)NC(=O)[C@H](CCCNC(=N)N)NC(=O)[C@@H](Cc2ccccc2)NC(=O)[C@H](CCCNC(=N)N)NC(=O)[C@@H](C)NC1=O) [Compound 10: Ac-Arg-cyclo[Cys-D-Ala-Arg-D-Phe-Arg-Trp-Cys]-NH2]
1.45

Indicate the recorded Ratios of EC50 values: MC3/4 value for this binder: Ac-R[hCys]A[dF]RWC-NH2 (disulfide 2-7; SMILES CC(=O)N[C@@H](CCCNC(=N)N)C(=O)N[C@H]1CCSSC[C@@H](C(N)=O)NC(=O)[C@H](Cc2c[nH]c3ccccc23)NC(=O)[C@H](CCCNC(=N)N)NC(=O)[C@@H](Cc2ccccc2)NC(=O)[C@H](C)NC1=O) [Compound 15: Ac-Arg-cyclo[hCys-Ala-D-Phe-Arg-Trp-Cys]-NH2]
3.8

Indicate the recorded Ratios of EC50 values: MC3/4 value for this binder: Ac-RC[dA]N[dF]RWC-NH2 (disulfide 2-8; SMILES CC(=O)N[C@@H](CCCNC(=N)N)C(=O)N[C@H]1CSSC[C@@H](C(N)=O)NC(=O)[C@H](Cc2c[nH]c3ccccc23)NC(=O)[C@H](CCCNC(=N)N)NC(=O)[C@@H](Cc2ccccc2)NC(=O)[C@H](CC(N)=O)NC(=O)[C@@H](C)NC1=O) [Compound 9: Ac-Arg-cyclo[Cys-D-Ala-Asn-D-Phe-Arg-Trp-Cys]-NH2]
30

Indicate the recorded Ratios of EC50 values: MC3/4 value for this binder: Ac-RC[dI]H[dF]RWC-NH2 (disulfide 2-8) [Compound 2: Ac-Arg-cyclo[Cys-D-Ile-His-D-Phe-Arg-Trp-Cys]-NH2]
0.96

---
Indicate the recorded Ratios of EC50 values: MC3/4 value for this binder: Ac-R[hCys][dA][dF]RWC-NH2 (disulfide 2-7; SMILES CC(=O)N[C@@H](CCCNC(=N)N)C(=O)N[C@H]1CCSSC[C@@H](C(N)=O)NC(=O)[C@H](Cc2c[nH]c3ccccc23)NC(=O)[C@H](CCCNC(=N)N)NC(=O)[C@@H](Cc2ccccc2)NC(=O)[C@@H](C)NC1=O) [Compound 16: Ac-Arg-cyclo[hCys-D-Ala-D-Phe-Arg-Trp-Cys]-NH2]
420

Indicate the recorded Ratios of EC50 values: MC3/4 value for this binder: Ac-RC[dL]H[dF]RWC-NH2 (disulfide 2-8) [Compound 1: Ac-Arg-cyclo[Cys-D-Leu-His-D-Phe-Arg-Trp-Cys]-NH2]
1.13

Indicate the recorded Ratios of EC50 values: MC3/4 value for this binder: Ac-RC[dV]H[dF]RWC-NH2 (disulfide 2-8) [Compound 4: Ac-Arg-cyclo[Cys-D-Val-His-D-Phe-Arg-Trp-Cys]-NH2]
1.19

Reference for the values: patent US20160022764A1
